The measurements presented in this section are drawn from paper PMC9482650.

# MEASUREMENT_TARGET: TJP1_3, Q07157
# Sequence (Q07157 416-512): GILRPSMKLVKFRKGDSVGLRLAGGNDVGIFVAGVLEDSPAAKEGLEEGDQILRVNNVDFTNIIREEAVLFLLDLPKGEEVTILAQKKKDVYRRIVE
# EXPERIMENT_NOTES: holdup assay
# Set-up: key: below the threshold = too weak to quantify, mostly under pKd 3.1 to 4
# PROTOCOL_CONDITIONS: plain residues with an end cap or a label only (N-terminal biotin on a linker: ado-ado)
TEST_READOUT: pKd

Recorded pKd, per entry:
KPDKQEEFYA [SDC3, O75056]	below the threshold
GTMFLRETSL [GUCY1A2, P33402]	below the threshold
FLVTEFNVML [DFNB31, Q9P202]	below the threshold
SRPHTNETSL [MCC, P23508]	below the threshold
PKSNSSKEYV [CLDN7, O95471]	below the threshold
PDSYHRRDFW [U2AF2, P26368]	below the threshold
NNMAFETTHF [SLC5A12, Q1EHB4]	below the threshold
SQPLLVHDDV [KIT, P10721]	below the threshold

Provide pKd values for the following items, in order.
1. TNSKQGETTV [FZD1, Q9UP38]
2. GNDPDRGTSI [GRID2, O43424]
3. DFKHTKSFII [JAM2, P57087]
4. PGKKPEDSRV [SLCO2B1, O94956]
5. PEKVSNTTVV [IGSF5, Q9NSI5]

1. 3.69
2. below the threshold
3. below the threshold
4. below the threshold
5. below the threshold
